assay: activity coefficient (dimensionless); of the first substance listed, at infinite dilution; xn = mol fraction of the nth substance listed; settings: 343 K; 101.33 kPa; Liquid; Chromatography; x1 = 0
measurementName: activity coefficient
Provide a numeric answer; units are not to be included.

Solved cases below.
1) CCOC(C)=O [ethyl acetate] + O=S(=O)([N-]S(=O)(=O)C(F)(F)F)C(F)(F)F.O=S(=O)([N-]S(=O)(=O)C(F)(F)F)C(F)(F)F.O=S(=O)([N-]S(=O)(=O)C(F)(F)F)C(F)(F)F.c1ccc2cc(-n3cc[n+](Cc4cc(C[n+]5ccn(-c6ccc7ccccc7c6)c5)cc(C[n+]5ccn(-c6ccc7ccccc7c6)c5)c4)c3)ccc2c1 : 0.443
2) CCCO [propan-1-ol] + O=S(=O)([N-]S(=O)(=O)C(F)(F)F)C(F)(F)F.O=S(=O)([N-]S(=O)(=O)C(F)(F)F)C(F)(F)F.O=S(=O)([N-]S(=O)(=O)C(F)(F)F)C(F)(F)F.c1ccc2cc(-n3cc[n+](Cc4cc(C[n+]5ccn(-c6ccc7ccccc7c6)c5)cc(C[n+]5ccn(-c6ccc7ccccc7c6)c5)c4)c3)ccc2c1 : 0.73
3) c1ccncc1 [pyridine] + O=S(=O)([N-]S(=O)(=O)C(F)(F)F)C(F)(F)F.O=S(=O)([N-]S(=O)(=O)C(F)(F)F)C(F)(F)F.O=S(=O)([N-]S(=O)(=O)C(F)(F)F)C(F)(F)F.c1ccc2cc(-n3cc[n+](Cc4cc(C[n+]5ccn(-c6ccc7ccccc7c6)c5)cc(C[n+]5ccn(-c6ccc7ccccc7c6)c5)c4)c3)ccc2c1 : 0.198
4) CCCC=O [butanal] + O=S(=O)([N-]S(=O)(=O)C(F)(F)F)C(F)(F)F.O=S(=O)([N-]S(=O)(=O)C(F)(F)F)C(F)(F)F.O=S(=O)([N-]S(=O)(=O)C(F)(F)F)C(F)(F)F.c1ccc2cc(-n3cc[n+](Cc4cc(C[n+]5ccn(-c6ccc7ccccc7c6)c5)cc(C[n+]5ccn(-c6ccc7ccccc7c6)c5)c4)c3)ccc2c1 : 0.324
5) ClC(Cl)(Cl)Cl [tetrachloromethane] + O=S(=O)([N-]S(=O)(=O)C(F)(F)F)C(F)(F)F.O=S(=O)([N-]S(=O)(=O)C(F)(F)F)C(F)(F)F.O=S(=O)([N-]S(=O)(=O)C(F)(F)F)C(F)(F)F.c1ccc2cc(-n3cc[n+](Cc4cc(C[n+]5ccn(-c6ccc7ccccc7c6)c5)cc(C[n+]5ccn(-c6ccc7ccccc7c6)c5)c4)c3)ccc2c1 : 2.6
6) O=C1CCCC1 [cyclopentanone] + O=S(=O)([N-]S(=O)(=O)C(F)(F)F)C(F)(F)F.O=S(=O)([N-]S(=O)(=O)C(F)(F)F)C(F)(F)F.O=S(=O)([N-]S(=O)(=O)C(F)(F)F)C(F)(F)F.c1ccc2cc(-n3cc[n+](Cc4cc(C[n+]5ccn(-c6ccc7ccccc7c6)c5)cc(C[n+]5ccn(-c6ccc7ccccc7c6)c5)c4)c3)ccc2c1 : 0.211
7) CC(C)O [propan-2-ol] + O=S(=O)([N-]S(=O)(=O)C(F)(F)F)C(F)(F)F.O=S(=O)([N-]S(=O)(=O)C(F)(F)F)C(F)(F)F.O=S(=O)([N-]S(=O)(=O)C(F)(F)F)C(F)(F)F.c1ccc2cc(-n3cc[n+](Cc4cc(C[n+]5ccn(-c6ccc7ccccc7c6)c5)cc(C[n+]5ccn(-c6ccc7ccccc7c6)c5)c4)c3)ccc2c1 : 0.693
8) Cc1ccccc1 [toluene] + O=S(=O)([N-]S(=O)(=O)C(F)(F)F)C(F)(F)F.O=S(=O)([N-]S(=O)(=O)C(F)(F)F)C(F)(F)F.O=S(=O)([N-]S(=O)(=O)C(F)(F)F)C(F)(F)F.c1ccc2cc(-n3cc[n+](Cc4cc(C[n+]5ccn(-c6ccc7ccccc7c6)c5)cc(C[n+]5ccn(-c6ccc7ccccc7c6)c5)c4)c3)ccc2c1 : 1.69
9) O=Cc1ccccc1 [benzaldehyde] + O=S(=O)([N-]S(=O)(=O)C(F)(F)F)C(F)(F)F.O=S(=O)([N-]S(=O)(=O)C(F)(F)F)C(F)(F)F.O=S(=O)([N-]S(=O)(=O)C(F)(F)F)C(F)(F)F.c1ccc2cc(-n3cc[n+](Cc4cc(C[n+]5ccn(-c6ccc7ccccc7c6)c5)cc(C[n+]5ccn(-c6ccc7ccccc7c6)c5)c4)c3)ccc2c1 : 1
10) CCO [ethanol] + O=S(=O)([N-]S(=O)(=O)C(F)(F)F)C(F)(F)F.O=S(=O)([N-]S(=O)(=O)C(F)(F)F)C(F)(F)F.O=S(=O)([N-]S(=O)(=O)C(F)(F)F)C(F)(F)F.c1ccc2cc(-n3cc[n+](Cc4cc(C[n+]5ccn(-c6ccc7ccccc7c6)c5)cc(C[n+]5ccn(-c6ccc7ccccc7c6)c5)c4)c3)ccc2c1 : 0.606

// field: activity coefficient; key: Cc1ccccc1C [1,2-dimethylbenzene] + O=S(=O)([N-]S(=O)(=O)C(F)(F)F)C(F)(F)F.O=S(=O)([N-]S(=O)(=O)C(F)(F)F)C(F)(F)F.O=S(=O)([N-]S(=O)(=O)C(F)(F)F)C(F)(F)F.c1ccc2cc(-n3cc[n+](Cc4cc(C[n+]5ccn(-c6ccc7ccccc7c6)c5)cc(C[n+]5ccn(-c6ccc7ccccc7c6)c5)c4)c3)ccc2c1 ; value = 1.04

Looking up C1CCCCC1 [cyclohexane] + O=S(=O)([N-]S(=O)(=O)C(F)(F)F)C(F)(F)F.O=S(=O)([N-]S(=O)(=O)C(F)(F)F)C(F)(F)F.O=S(=O)([N-]S(=O)(=O)C(F)(F)F)C(F)(F)F.c1ccc2cc(-n3cc[n+](Cc4cc(C[n+]5ccn(-c6ccc7ccccc7c6)c5)cc(C[n+]5ccn(-c6ccc7ccccc7c6)c5)c4)c3)ccc2c1 , I see its activity coefficient listed as 6.25

Lab note: measured activity coefficient of Cc1ccc(C)cc1 [1,4-dimethylbenzene] + O=S(=O)([N-]S(=O)(=O)C(F)(F)F)C(F)(F)F.O=S(=O)([N-]S(=O)(=O)C(F)(F)F)C(F)(F)F.O=S(=O)([N-]S(=O)(=O)C(F)(F)F)C(F)(F)F.c1ccc2cc(-n3cc[n+](Cc4cc(C[n+]5ccn(-c6ccc7ccccc7c6)c5)cc(C[n+]5ccn(-c6ccc7ccccc7c6)c5)c4)c3)ccc2c1 was 1.51
